Data provenance is ChEMBL document CHEMBL4765373.

- PROTOCOL: Cmax in Sprague-Dawley rat at 10 mg/kg, po administered via gavage by LC-MS/MS analysis
- Assay type: ADME, organism-based
- Set-up: route oral, dose 10 mg/kg
- TEST_SETTINGS: in vivo
PROPERTY_LABEL: Cmax (ng/mL)

> print(dat)
                           molecule  property.label  assay.value
1  C#CCN(C)CCCCCOc1ccc2c(c1)OCCC2=O            Cmax          142

###

- STUDY_TARGET: Amine oxidase [flavin-containing] B (Homo sapiens)
- PROTOCOL: biochemical
- Description: Inhibition of recombinant human MAOB expressed in baculovirus infected BTI insect cells using p-tyramine as substrate measured after 15 mins by Amplex red reagent based fluorescence assay
pIC50: −log10 of the molar value.
PROPERTY_LABEL: pIC50

> print(dat)
                              molecule  property.label  assay.value
1      C#CCN(C)CCCCCOc1ccc2c(c1)CCC2=O           pIC50         7.02
2      C#CCN(C)CCCCOc1ccc2c(c1)CCCC2=O           pIC50         7.14
3      C#CCN(C)CCCCOc1ccc(C(C)=O)cc1OC           pIC50         5.94
4      C#CCN(C)CCCCOc1ccc2c(c1)OCCC2=O           pIC50         7.23
5  C#CCN(C)CCCCCCCCOc1ccc2c(c1)OCCC2=O           pIC50         6.37
6     C#CCN(C)CCCCCCOc1ccc2c(c1)CCC2=O           pIC50         6.89
7       C#CCN(C)CCCCOc1ccc2c(c1)CCC2=O           pIC50         6.44

###

- STUDY_TARGET: MAO-A (Homo sapiens, UniProt P21397)
- Sequence (P21397 whole entry): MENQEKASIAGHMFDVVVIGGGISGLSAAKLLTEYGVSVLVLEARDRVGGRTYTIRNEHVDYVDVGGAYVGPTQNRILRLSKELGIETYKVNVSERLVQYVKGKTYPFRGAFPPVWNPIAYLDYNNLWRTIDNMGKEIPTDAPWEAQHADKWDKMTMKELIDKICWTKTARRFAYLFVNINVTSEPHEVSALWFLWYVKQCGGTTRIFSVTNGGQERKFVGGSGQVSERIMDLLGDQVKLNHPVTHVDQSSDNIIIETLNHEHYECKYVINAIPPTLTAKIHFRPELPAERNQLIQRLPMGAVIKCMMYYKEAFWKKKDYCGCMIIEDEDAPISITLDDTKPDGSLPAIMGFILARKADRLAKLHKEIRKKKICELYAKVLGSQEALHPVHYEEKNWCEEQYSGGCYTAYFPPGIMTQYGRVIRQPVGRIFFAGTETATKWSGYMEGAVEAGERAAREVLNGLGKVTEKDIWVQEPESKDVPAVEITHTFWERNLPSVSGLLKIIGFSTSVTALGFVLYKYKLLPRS
- PROTOCOL: Inhibition of recombinant human MAOA expressed in baculovirus infected BTI insect cells at 100 uM using p-tyramine as substrate measured after 15 mins by Amplex red reagent based fluorescence assay relative to control
- TEST_SETTINGS: probe p-tyramine
PROPERTY_LABEL: inhibition at 0.25 h, 100 µM (%)

> print(dat)
                              molecule                property.label  units.symbol  assay.value
1  C#CCN(C)CCCCCCCCOc1ccc2c(c1)OCCC2=O  inhibition at 0.25 h, 100 µM             %         28.6
2      C#CCN(C)CCCCCCOc1ccc(C(C)=O)cc1  inhibition at 0.25 h, 100 µM             %         37.3
3      C#CCN(C)CCCCOc1ccc2c(c1)CCCC2=O  inhibition at 0.25 h, 100 µM             %         30.9
4     C#CCN(C)CCCCCCOc1ccc(C=O)c(OC)c1  inhibition at 0.25 h, 100 µM             %         37.4
5       C#CCN(C)CCCCOc1ccc2c(c1)CCC2=O  inhibition at 0.25 h, 100 µM             %         7.93
6       C#CCN(C)CCCOc1ccc2c(c1)OCCC2=O  inhibition at 0.25 h, 100 µM             %         32.1
7     C#CCN(C)CCCCCCOc1ccc2c(c1)CCC2=O  inhibition at 0.25 h, 100 µM             %         4.42

###

- STUDY_TARGET: Amine oxidase [flavin-containing] B (Homo sapiens, UniProt P27338)
- Sequence (P27338 whole entry): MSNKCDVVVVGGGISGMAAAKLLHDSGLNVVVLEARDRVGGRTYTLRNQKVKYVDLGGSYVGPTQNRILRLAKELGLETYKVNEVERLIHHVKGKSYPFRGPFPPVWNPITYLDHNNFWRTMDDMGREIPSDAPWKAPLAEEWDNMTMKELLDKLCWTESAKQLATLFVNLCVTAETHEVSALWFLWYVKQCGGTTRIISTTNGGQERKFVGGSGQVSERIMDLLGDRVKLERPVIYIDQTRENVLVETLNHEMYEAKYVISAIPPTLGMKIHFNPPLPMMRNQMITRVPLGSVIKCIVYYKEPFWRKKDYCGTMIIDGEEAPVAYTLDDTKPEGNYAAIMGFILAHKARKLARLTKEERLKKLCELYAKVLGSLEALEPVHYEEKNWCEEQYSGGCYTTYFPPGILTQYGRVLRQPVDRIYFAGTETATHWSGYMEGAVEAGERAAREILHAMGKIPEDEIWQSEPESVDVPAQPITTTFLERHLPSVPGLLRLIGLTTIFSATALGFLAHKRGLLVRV
- PROTOCOL: biochemical
PROPERTY_LABEL: IC50 (nM)

> print(dat)
                             molecule  property.label  assay.value
 1         C#CCN(C)CCCCCOc1cccc(OC)c1            IC50          101
 2  C#CCN(C)CCCCCCOc1ccc2c(c1)CCCC2=O            IC50          133
 3    C#CCN(C)CCCCCCOc1ccc(C(C)=O)cc1            IC50         20.4
 4   C#CCN(C)CCCCCCOc1ccc(C=O)c(OC)c1            IC50          552
 5   C#CCN(C)CCCCCOc1ccc2c(c1)CCCC2=O            IC50         46.3
 6   C#CCN(C)CCCCCOc1ccc2c(c1)OCCC2=O            IC50            4
 7      C#CCN(C)CCCCOc1ccc(C(C)=O)cc1            IC50         56.5
 8     C#CCN(C)CCCOc1ccc2c(c1)OCCC2=O            IC50        11400
 9  C#CCN(C)CCCCCCOc1ccc2c(c1)OCCC2=O            IC50          117
10   C#CCN(C)CCCCCCOc1ccc2c(c1)OCC2=O            IC50         51.9
11    C#CCN(C)CCCCCOc1ccc(C=O)c(OC)c1            IC50         5730
12   C#CCN(C)CCCCCOc1ccc(C(C)=O)cc1OC            IC50         6520

###

- PROTOCOL: AUC (0 to infinity) in Sprague-Dawley rat at 10 mg/kg, po administered via gavage by LC-MS/MS analysis
- Format: ADME, organism-based
- Set-up: route oral, time infinity, dose 10 mg/kg
- TEST_SETTINGS: in vivo
PROPERTY_LABEL: AUC(0-inf) (ng·h/mL)

> print(dat)
                           molecule  property.label  assay.value
1  C#CCN(C)CCCCCOc1ccc2c(c1)OCCC2=O      AUC(0-inf)          268

###

- PROTOCOL: Oral bioavailability in Sprague-Dawley rat at 10 mg/kg administered via gavage by LC-MS/MS analysis
- Format: ADME, organism-based
- TEST_SETTINGS: in vivo
PROPERTY_LABEL: bioavailability

> print(dat)
                           molecule  assay.value
1  C#CCN(C)CCCCCOc1ccc2c(c1)OCCC2=O        36.1%

###

- Species: Homo sapiens
- PROTOCOL: Inhibition of self-induced amyloid beta (1 to 42) (unknown origin) peptide aggregation at 25 uM measured after 48 hrs by thioflavin-T fluorescence assay relative to control
Criterion met means recorded inhibition is 6% or above; Criterion not met means it is below 6%.

> print(dat)
                              molecule              group
1    C#CCN(C)CCCCCCOc1ccc2c(c1)OCCC2=O  Criterion not met
2       C#CCN(C)CCCCOc1ccc2c(c1)CCC2=O      Criterion met
3      C#CCN(C)CCCCOc1ccc2c(c1)CCCC2=O      Criterion met
4    C#CCN(C)CCCCCCOc1ccc2c(c1)CCCC2=O      Criterion met
5     C#CCN(C)CCCCCOc1ccc(C(C)=O)cc1OC  Criterion not met
6  C#CCN(C)CCCCCCCCOc1ccc2c(c1)OCCC2=O  Criterion not met
7     C#CCN(C)CCCCCCOc1ccc2c(c1)OCC2=O      Criterion met

###

- STUDY_TARGET: MAO-A (Homo sapiens, UniProt P21397)
- PROTOCOL: Inhibition of recombinant human MAOA expressed in baculovirus infected BTI insect cells at 100 uM using p-tyramine as substrate measured after 15 mins by Amplex red reagent based fluorescence assay relative to control
- TEST_SETTINGS: probe p-tyramine
yes means recorded inhibition at 0.25 h, 100 µM is 30% or above; no means it is below 30%.

> print(dat)
                               compound  group
1     C#CCN(C)CCCCCCOc1ccc2c(c1)CCCC2=O     no
2  C#CCN[C@@H]1CCc2ccccc21 [RASAGILINE]    yes
3       C#CCN(C)CCCCCOc1ccc2c(c1)CCC2=O    yes
4      C#CCN(C)CCCCCCOc1ccc2c(c1)OCC2=O     no
5      C#CCN(C)CCCCCOc1ccc(C(C)=O)cc1OC    yes
6      C#CCN(C)CCCCCOc1ccc2c(c1)CCCC2=O     no
7       C#CCN(C)CCCCOc1ccc2c(c1)OCCC2=O     no

###

- PROTOCOL: Half life in Sprague-Dawley rat at 10 mg/kg, po administered via gavage by LC-MS/MS analysis
- Assay type: ADME, organism-based
- TEST_SETTINGS: in vivo
PROPERTY_LABEL: half-life (h)

> print(dat)
                           molecule  units.symbol  assay.value
1  C#CCN(C)CCCCCOc1ccc2c(c1)OCCC2=O             h         1.33
